test system: HeLa; experiment: Primary qHTS to identify gynecologic anti-cancer compounds using libraries of approved drugs and bioactive compounds (AID 1345084); details: Gynecologic cancer cell panel viability, ATPlite luminescence, 48 h; series mostly up to 57.5 µM; note: % is set by controls: 0 for no effect and ±100 for the full control effect; nearly all actives have a fitted effect of over 55% in size
Records with an inconclusive call do not appear. The source made the active and inactive calls. Calls come from the whole dose curve; as a rule, active = well fitted cell-killing curve with a large enough effect; inconclusive = small, poorly fitted or top-dose-only effect, or effect the other way; inactive = flat fitted curve, though single readings scatter.

- compound: "OCC1OC(Oc2cc(O)c3c(c2)OC(c2ccc(O)cc2)C(O)C3)C(O)C1O (stereo unspecified)"
  activity change, negative = cytotoxicity: "inactive"
- compound: "O=C(O)c1cc(O)c2cccc(O)c2c1O[C@@H]1O[C@H](CO)[C@@H](O)[C@H](O)[C@H]1O"
  activity change, negative = cytotoxicity: "inactive"
- compound: "COC1C2=C(COC2=O)C2(C)CCCC(C)(CO)C2C1OC(=O)c1ccccc1 (stereo unspecified)"
  activity change, negative = cytotoxicity: "inactive"
- compound: "CC1CCC2C(C)(C)C(O)CCC2(C)C12Cc1c(O)cc3c(c1O2)CN=C3N (stereo unspecified)"
  activity change, negative = cytotoxicity: "inactive"
- compound: "CC1(C)CC2C3=CCC4C5(C)CCC(OC6OC(CO)C(O)C(OC7OC(CO)C(O)C(OC8OC(CO)C(O)C(OC9OC(COC%10OC(CO)C(O)C(O)C%10O)C(O)C(O)C9O)C8O)C7O)C6O)C(C)(C)C5CCC4(C)C3(C)CCC2(C(=O)O)CC1O (stereo unspecified)"
  activity change, negative = cytotoxicity: "-11.1% [at 6.55 µM] (inactive)"
- compound: "CC1(C)CCC(C)(C)c2cc3c(cc21)Sc1ccccc1N=C3c1ccc(C(=O)O)cc1"
  activity change, negative = cytotoxicity: "inactive"
- compound: "CC[C@H]1OC(=O)C[C@@H](O)[C@H](C)[C@@H](O[C@@H]2O[C@H](C)[C@@H](O)[C@H](N(C)C)[C@H]2O)[C@@H](CCN2C[C@H](C)C[C@H](C)C2)C[C@@H](C)C(=O)/C=C/C(C)=C/[C@@H]1CO[C@@H]1O[C@H](C)[C@@H](O)[C@@H](OC)[C@H]1OC"
  activity change, negative = cytotoxicity: "inactive"
- compound: "C[C@@H]1O[C@@H](O[C@H]2[C@H](O)[C@@H](C(=O)O)O[C@@H](O[C@H]3CC[C@@]4(C)C(CC[C@]5(C)C4CC=C4C6CC(C)(C)CC[C@]6(C(=O)O)CC[C@]45C)C3(C)C)[C@@H]2O[C@@H]2O[C@H](CO)[C@@H](O)[C@H](O)[C@H]2O)[C@H](O)[C@H](O)[C@H]1O (stereo partly specified)"
  activity change, negative = cytotoxicity: "6.77% [at 11.6 µM] (inactive)"
- compound: "CC(C)CC(=O)O[C@@H]1OC=C(CO[C@@H]2O[C@H](CO[C@@H]3O[C@H](CO)[C@@H](O)[C@H](O)[C@H]3O)[C@@H](O)[C@H](O)[C@H]2O)[C@H]2C[C@H](O)[C@@H](CO)[C@@H]12"
  activity change, negative = cytotoxicity: "inactive"
- compound: "C=C(C)[C@@H](C)[C@H]1O[C@]23C[C@]4(CO2)C(CCC2[C@@]5(C)CC[C@H](O[C@@H]6OC[C@H](O)[C@H](O[C@@H]7O[C@H](CO)[C@@H](O)[C@H](O)[C@H]7O)[C@H]6O[C@@H]6O[C@@H](CO)[C@H](O)[C@H]6O)C(C)(C)C5CC[C@]24C)C3[C@@](C)(O)[C@@H]1OC(C)=O (stereo partly specified)"
  activity change, negative = cytotoxicity: "-18.1% [at 11.6 µM] (inactive)"
- compound: "C=C1CCC2(OC1)OC1CC3C4CC=C5CC(O)CC(O[C@@H]6OC[C@@H](O)[C@H](O)[C@H]6O)C5(C)C4CCC3(C)C1(O)C2C (stereo partly specified)"
  activity change, negative = cytotoxicity: "inactive"

Data origin, for the record: PubChem BioAssay (NCATS)
